- target_entity: WT/R232 STING protein (Homo sapiens, UniProt Q86WV6, H232R)
- Sequence (Q86WV6 whole entry H232R): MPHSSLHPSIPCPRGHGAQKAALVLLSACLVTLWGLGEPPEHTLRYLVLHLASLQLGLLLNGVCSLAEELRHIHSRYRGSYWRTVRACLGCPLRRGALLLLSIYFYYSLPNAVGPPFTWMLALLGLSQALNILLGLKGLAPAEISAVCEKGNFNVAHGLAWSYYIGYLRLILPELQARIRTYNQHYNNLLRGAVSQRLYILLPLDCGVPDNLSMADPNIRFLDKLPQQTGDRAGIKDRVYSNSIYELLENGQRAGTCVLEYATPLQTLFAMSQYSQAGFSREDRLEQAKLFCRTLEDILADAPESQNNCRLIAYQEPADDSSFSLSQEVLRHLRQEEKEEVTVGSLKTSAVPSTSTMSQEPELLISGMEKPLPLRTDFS
- assay_text: Luciferase reporter assay in HEK293T-hSTING-Luciferase cells (R232)
- recorded_conditions: 20 hr stimulation, EC50 range
assay_metric: EC50

Examples from the recorded data:
- molecule: "Cc1ccc(CNC(=O)c2ccc3c(c2)N(Cc2cccc(F)c2F)C(=O)C3(C)C)o1"
  EC50: "1 to 10 µM"
- molecule: "Cc1cc(CN2C(=O)C(C)(C)c3ccc(C(=O)NCc4c(F)cc(F)cc4F)cc32)nn1C"
  EC50: "1 to 10 µM"
- molecule: "CC1(C)C(=O)N(Cc2cc(F)cc(F)c2)c2c1ccc(C(=O)NCc1c(F)cc(F)cc1F)c2F"
  EC50: "> 10 µM"
- molecule: "CC1(C)C(=O)N(Cc2c(F)cccc2Cl)c2cc(C(=O)NCc3ccc(F)cc3)ccc21"
  EC50: "≤ 1 µM"
- molecule: "C=CCC1(C)C(=O)N(Cc2cc(C)nn2CC)c2cc(C(=O)NCc3c(F)cc(F)cc3F)ccc21 (centres unmarked)"
  EC50: "1 to 10 µM"
- molecule: "CC1(CO)C(=O)N(Cc2cc(F)cc(F)c2)c2cc(C(=O)NCc3ccc(F)cc3F)ccc21 (centres unmarked)"
  EC50: "> 10 µM"
- molecule: "CC1(C)C(=O)N(Cc2cc(F)cc(F)c2)c2cc(C(=O)NCc3nc4ccccc4s3)ccc21"
  EC50: "1 to 10 µM"

Please examine the following record next.
According to the records, this molecule "Cc1cc(CN2C(=O)C(C)(C)c3ccc(C(=O)NCc4c(F)cc(F)cc4F)cc32)no1" displays EC50 of 1 to 10 µM

====

- target_entity: hSTING (H232) (Homo sapiens)
- Sequence (Q86WV6 whole entry): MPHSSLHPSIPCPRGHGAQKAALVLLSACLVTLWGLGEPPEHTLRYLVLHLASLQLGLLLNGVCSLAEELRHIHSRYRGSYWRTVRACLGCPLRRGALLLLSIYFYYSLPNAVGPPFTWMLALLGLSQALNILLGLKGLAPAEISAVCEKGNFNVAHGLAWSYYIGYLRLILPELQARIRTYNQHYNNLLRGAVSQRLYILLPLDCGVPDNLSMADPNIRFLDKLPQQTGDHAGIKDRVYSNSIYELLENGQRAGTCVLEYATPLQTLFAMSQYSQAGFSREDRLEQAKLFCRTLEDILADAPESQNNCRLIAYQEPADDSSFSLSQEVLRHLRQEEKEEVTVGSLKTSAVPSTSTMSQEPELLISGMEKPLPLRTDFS
- assay_text: Luciferase reporter assay in HEK293T-hSTING-Luciferase cells (H232/REF polymorph)
- recorded_conditions: EC50 range
The entries below are paired with their reported EC50.

- compound: "Cc1ccc(CNC(=O)c2ccc3c(c2)N(Cc2c(C)cccc2F)C(=O)C3(C)C)o1"
  target_entity: "hSTING (H232) (Homo sapiens)"
  EC50: "1000 to 10000 nM"

According to the records, this compound CC1(N=[N+]=[N-])C(=O)N(Cc2c(F)cccc2Cl)c2cc(C(=O)NCc3c(F)cc(F)cc3F)ccc21 (stereo not drawn) displays EC50 of 1000 to 10000 nM

According to the records, this compound CC1(C#N)C(=O)N(Cc2c(F)cccc2Cl)c2cc(C(=O)NCc3c(F)cc(F)cc3F)ccc21 (stereo not drawn) [Example 165] displays EC50 of ≤ 1000 nM

According to the records, this compound "CC1(C)C(=O)N(Cc2c(F)cccc2Cl)c2cc(C(=O)NCc3c(F)cc(F)cc3F)ccc21" displays EC50 of ≤ 1000 nM

According to the records, this compound "CC1(C)C(=O)N(Cc2c(F)cccc2Cl)c2cc(C(=O)NCc3ccc4ccoc4c3)ccc21" displays EC50 of 1000 to 10000 nM

According to the records, this compound "CC1(C)C(=O)N(Cc2cc(F)cc(F)c2)c2cc(C(=O)NCc3ccc(N=[N+]=[N-])cc3)ccc21" displays EC50 of 1000 to 10000 nM

According to the records, this compound "CC1(C)C(=O)N(Cc2noc3ccccc23)c2cc(C(=O)NCc3c(F)cc(F)cc3F)ccc21" displays EC50 of ≤ 1000 nM

According to the records, this compound "COCCn1nc(C)c(F)c1CN1C(=O)C(C)(C)c2ccc(C(=O)NCc3cc4cc(F)ccc4o3)cc21" displays EC50 of 1000 to 10000 nM

According to the records, this compound "CC1(C)C(=O)N(Cc2cc(F)cc(F)c2)c2nc(C(=O)NCc3cc4ccccc4o3)ccc21" displays EC50 of 1000 to 10000 nM

According to the records, this compound "CC1(C)C(=O)N(Cc2c(F)cccc2Cl)c2cc(C(=O)NCc3nc4ccccc4o3)ccc21" displays EC50 of 1000 to 10000 nM

According to the records, this compound CC(C)C1(Cl)C(=O)N(Cc2c(F)cccc2Cl)c2cc(C(=O)NCc3c(F)cc(F)cc3F)ccc21 (stereo not drawn) displays EC50 of 1000 to 10000 nM

According to the records, this compound CCC1(Cl)C(=O)N(Cc2c(F)cccc2Cl)c2cc(C(=O)NCc3c(F)cc(F)cc3F)ccc21 (stereo not drawn) displays EC50 of > 10000 nM

According to the records, this compound "CC1(C)C(=O)N(Cc2c(F)cccc2Cl)c2cc(C(=O)NCc3ccc(F)cc3F)ccc21" displays EC50 of ≤ 1000 nM

According to the records, this compound "Cc1ccc(CNC(=O)c2ccc3c(c2)N(Cc2c(F)cccc2F)C(=O)C3(C)C)o1" displays EC50 of 1000 to 10000 nM

According to the records, this compound "Cc1cc(CN2C(=O)C(C)(C)c3ccc(C(=O)NCc4c(F)cc(F)cc4F)cc32)ccn1" displays EC50 of 1000 to 10000 nM

====

- target_entity: hSTING (HAQ) (Homo sapiens, UniProt Q86WV6, G230A/H232R/R293Q/R71H)
- Sequence (Q86WV6 whole entry R71H/G230A/H232R/R293Q): as the sequence (Q86WV6 whole entry H232R) above, with R71H, G230A, R293Q counted along it
- assay_text: Luciferase reporter assay in HEK293T-hSTING-Luciferase cells (HAQ polymorph)
- recorded_conditions: EC50 range
pEC50: −log10 of the molar value.
assay_metric: pEC50

Examples from the recorded data:
- compound: "Cc1ccc(CNC(=O)c2ccc3c(n2)N(Cc2cc(F)cc(F)c2)C(=O)C3(C)C)o1"
  pEC50: "5.00 to 6.00"
- compound: "CC1(C)C(=O)N(Cc2ccc(N=[N+]=[N-])cc2)c2cc(C(=O)NCc3c(F)cc(F)cc3F)ccc21"
  pEC50: "5.00 to 6.00"
- compound: "CC1(C)C(=O)N(Cc2ccc(F)cc2)c2cc(C(=O)NCc3c(F)cc(F)cc3F)ccc21"
  pEC50: "≥ 6.00"

Observed pEC50, hSTING (HAQ) (Homo sapiens, UniProt Q86WV6, G230A/H232R/R293Q/R71H), "CC1(C)C(=O)N(Cc2c(F)cccc2F)c2cc(C(=O)NCc3c(F)cc(F)cc3F)ccc21" : ≥ 6.00

Observed pEC50, hSTING (HAQ) (Homo sapiens, UniProt Q86WV6, G230A/H232R/R293Q/R71H), "CC1(C)C(=O)N(Cc2c(F)cccc2Cl)c2cc(C(=O)NCc3c(F)cccc3F)ccc21" : ≥ 6.00

Observed pEC50, hSTING (HAQ) (Homo sapiens, UniProt Q86WV6, G230A/H232R/R293Q/R71H), "CC1(C)C(=O)N(Cc2c(F)cccc2Cl)c2cc(C(=O)NCc3ccccc3F)ccc21" : 5.00 to 6.00

Observed pEC50, hSTING (HAQ) (Homo sapiens, UniProt Q86WV6, G230A/H232R/R293Q/R71H), CC1(Cl)C(=O)N(Cc2cc(F)cc(F)c2)c2cc(C(=O)NCc3c(F)cc(F)cc3F)ccc21 (stereo not shown) [Example 144] : 5.00 to 6.00

====

The entries below are paired with their reported pEC50.
- target_entity: WT/R232 STING protein (Homo sapiens, UniProt Q86WV6, H232R)
- assay_text: Luciferase reporter assay in HEK293T-hSTING-Luciferase cells (R232)
- recorded_conditions: 20 hr stimulation, EC50 range
pEC50: −log10 of the molar value.

Examples from the recorded data:
- compound: "CC1(C#N)C(=O)N(Cc2c(F)cccc2Cl)c2cc(C(=O)NCc3c(F)cc(F)cc3F)ccc21 (centres unmarked) [Example 165]"
  assay_metric: "pEC50"
  value_observed: "≥ 6.00"
- compound: "Cc1cccc(F)c1CN1C(=O)C(C)(C)c2ncc(C(=O)NCc3ccc(F)cc3)cc21"
  assay_metric: "pEC50"
  value_observed: "< 5.00"
- compound: "CCC1(OC)C(=O)N(Cc2c(F)cccc2Cl)c2cc(C(=O)NCc3c(F)cc(F)cc3F)ccc21 (centres unmarked)"
  assay_metric: "pEC50"
  value_observed: "5.00 to 6.00"
- compound: "Cc1cc(CN2C(=O)C(C)(C)c3ccc(C(=O)NCc4c(F)cc(F)cc4F)cc32)on1"
  assay_metric: "pEC50"
  value_observed: "< 5.00"
- compound: "CC1(C)C(=O)N(Cc2c(F)cccc2Cl)c2cc(C(=O)NCc3ccc4ccoc4c3)ccc21"
  assay_metric: "pEC50"
  value_observed: "≥ 6.00"
- compound: "O=C(NCc1c(F)cc(F)cc1F)c1ccc2c(c1)N(Cc1cc(F)cc(F)c1)C(=O)C21CCCC1"
  assay_metric: "pEC50"
  value_observed: "5.00 to 6.00"
- compound: "Cc1cccc(CNC(=O)c2ccc3c(c2)N(Cc2cc(F)cc(F)c2)C(=O)C3(C)C)n1"
  assay_metric: "pEC50"
  value_observed: "< 5.00"

According to the records, this compound "CC1(C)C(=O)N(Cc2c(F)ccc(O)c2Cl)c2cc(C(=O)NCc3c(F)cc(F)cc3F)ccc21" displays pEC50 of ≥ 6.00

This collection of values is drawn from patent US20200172483A1.
